Attribution: patent US20170101466A1

Each entry below lists one item and its recorded kon value.
molecular target: T1, soluble mouse BLyS (mouse, UniProt Q9WU72 127-309); experiment: Biacore T100, binder captured by anti-human Fc, BLyS injected, 1:1 model
T1 construct: europium-labelled in DELFIA; also called mBLyS; mouse BAFF (BLyS)
Number only, in M⁻¹ s⁻¹; omit the unit.

Record excerpt, results attached:
>  <binder>
5B7 IgG1 F243A/V264A double mutein expressed in Pichia pastoris (antibody, V domains shown, IgG1 F243A/V264A (EU) double mutein, alpha-2,6-sialylated, from glycoengineered Pichia pastoris; also called 5B7-DM; 5B7-DM Pichia) VH: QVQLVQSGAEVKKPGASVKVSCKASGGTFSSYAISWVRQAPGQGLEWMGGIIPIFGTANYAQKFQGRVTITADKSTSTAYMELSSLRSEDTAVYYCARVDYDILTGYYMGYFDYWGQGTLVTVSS VL: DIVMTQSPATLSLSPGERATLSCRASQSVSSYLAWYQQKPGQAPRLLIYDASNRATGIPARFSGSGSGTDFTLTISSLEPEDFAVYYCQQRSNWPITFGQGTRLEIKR

>  <kon [M⁻¹ s⁻¹]>
2.73e+06

$$$$
>  <binder>
belimumab (antibody, V domains shown) VH: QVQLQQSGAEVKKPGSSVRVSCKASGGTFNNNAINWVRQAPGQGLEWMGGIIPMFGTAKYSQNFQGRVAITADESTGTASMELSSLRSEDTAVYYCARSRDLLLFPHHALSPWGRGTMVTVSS VL: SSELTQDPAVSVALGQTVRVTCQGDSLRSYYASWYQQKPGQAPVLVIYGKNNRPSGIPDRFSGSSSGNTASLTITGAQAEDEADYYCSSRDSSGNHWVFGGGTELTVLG

>  <kon [M⁻¹ s⁻¹]>
1.98e+06

$$$$
>  <binder>
8D12 IgG1 F243A/V264A double mutein expressed in Pichia pastoris (antibody, V domains shown, IgG1 F243A/V264A (EU) double mutein, alpha-2,6-sialylated, from glycoengineered Pichia pastoris; also called 8D12-DM; 8D12-DM (Pichia)) VH: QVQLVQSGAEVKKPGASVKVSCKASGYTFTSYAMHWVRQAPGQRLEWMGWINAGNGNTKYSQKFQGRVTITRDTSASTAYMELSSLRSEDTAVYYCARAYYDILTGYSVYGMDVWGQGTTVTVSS VL: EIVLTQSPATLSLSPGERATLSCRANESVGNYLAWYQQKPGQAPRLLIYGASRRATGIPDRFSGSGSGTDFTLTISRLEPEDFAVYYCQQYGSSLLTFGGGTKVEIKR

>  <kon [M⁻¹ s⁻¹]>
1.46e+06

$$$$

Value of measured kon for the entry mouse TACI (R&D Systems receptor chimera) (receptor, UniProt Q9ET35 2-129, looked up, not shown: a dimerising Fc or GST, also called mTACI; TACI rec Mouse) AMAFCPKDQYWDSSRKSCVSCALTCSQRSQRTCTDFCKFINCRKEQGRYYDHLLGACVSCDSTCTQHPQQCAHFCEKRPRSQANLQPELGRPQAGEVEVRSDNSGRHQGSEHGPGLRLSSDQLTLYCT : 682000

Value of measured kon for the entry 6C10 IgG1 F243A/V264A double mutein expressed in Pichia pastoris (antibody, V domains shown, IgG1 F243A/V264A (EU) double mutein, alpha-2,6-sialylated, from glycoengineered Pichia pastoris; also called 6C10-DM; 6C10-DM (Pichia)) VH: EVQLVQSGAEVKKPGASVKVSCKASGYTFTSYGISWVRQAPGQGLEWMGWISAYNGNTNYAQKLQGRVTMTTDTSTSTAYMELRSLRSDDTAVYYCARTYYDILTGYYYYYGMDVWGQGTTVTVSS VL: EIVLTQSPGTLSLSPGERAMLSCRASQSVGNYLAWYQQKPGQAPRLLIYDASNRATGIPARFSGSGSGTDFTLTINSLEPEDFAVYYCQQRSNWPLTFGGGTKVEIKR : 967000
